testTarget: human 11β-HSD2 (Homo sapiens, UniProt P80365)
Construct: using lysates of SW-620 cells as the enzyme source; host or cells: SW-620 human colon carcinoma cells (lysate)
Sequence (P80365 whole entry): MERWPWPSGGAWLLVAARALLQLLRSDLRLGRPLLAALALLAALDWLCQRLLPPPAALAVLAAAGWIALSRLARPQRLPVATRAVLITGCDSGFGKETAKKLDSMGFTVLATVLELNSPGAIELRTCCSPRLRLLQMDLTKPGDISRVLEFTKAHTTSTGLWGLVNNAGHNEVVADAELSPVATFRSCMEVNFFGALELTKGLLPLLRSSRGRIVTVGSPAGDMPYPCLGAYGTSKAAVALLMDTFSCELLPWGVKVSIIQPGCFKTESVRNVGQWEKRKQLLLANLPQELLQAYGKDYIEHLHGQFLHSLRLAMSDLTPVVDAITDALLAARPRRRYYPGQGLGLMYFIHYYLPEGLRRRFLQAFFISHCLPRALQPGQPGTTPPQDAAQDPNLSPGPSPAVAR
protocolSummary: in vitro inhibition of human 11β-HSD2 (SW-620 cell lysates, [3H]cortisol to [3H]cortisone)
Assay type: biochemical
Experimental: The in vitro inhibition of human 11β-HSD2 is determined as follows: The SW-620 human colon carcinoma cell line is obtained from the American Type Culture Collection (ATCC). […] Dehydrogenase activity is quantified by measuring the conversion of [^3H]cortisol to [^3H]cortisone using lysates of SW-620 cells as the enzyme source. […] The dissolved residues are quantitatively transferred to thin layer plates and developed in chloroform-methanol (90:10). […]
Would you mind labelling by inhibition at 10 µM? At or over 30% is criterion met, under is criterion not met.

Is it the case that CC1=C(C(=O)N(C)CC23CC4CC(CC(C4)C2)C3)Cc2ccccc21 [Example 8-6] has inhibition at 10 µM reaching or exceeding 30%?
criterion not met

Is it the case that COc1cccc(NC(=O)Nc2ccc(C(=O)N3CCC[C@H]4CCCC[C@H]43)c(OC)c2)c1 [Example 13-4] has inhibition at 10 µM reaching or exceeding 30%?
criterion met

Is it the case that O=C(NCc1ccc(F)cc1)N1CCc2cc(C(=O)N3CCC[C@H]4CCCC[C@H]43)ccc21 [Example 33-21] has inhibition at 10 µM reaching or exceeding 30%?
criterion met

Is it the case that O=C(c1ccc(-c2ccccc2[N+](=O)[O-])o1)N1CCC[C@@H]2CCCC[C@@H]21 [Example 35-15] has inhibition at 10 µM reaching or exceeding 30%?
criterion met

Is it the case that COc1ccccc1CNC(=O)c1ccc(C(=O)N2CCC[C@@H]3CCCC[C@@H]32)cc1 [Example 23-47] has inhibition at 10 µM reaching or exceeding 30%?
criterion met

Is it the case that O=C(Nc1ccc(C(=O)N2CCC[C@@H]3CCCC[C@@H]32)cc1)c1ccc(F)cc1 [Example 11-13] has inhibition at 10 µM reaching or exceeding 30%?
criterion not met

Is it the case that COC(=O)Nc1ccc(C(=O)N2CC[C@H]3CCCC[C@H]3C2)c(OC)c1 [Example 48-37] has inhibition at 10 µM reaching or exceeding 30%?
criterion not met

Is it the case that CN(CC1CCCCC1)C(=O)c1ccc(NC(=O)c2ccc(F)cc2)cc1Cl [Example 3-11] has inhibition at 10 µM reaching or exceeding 30%?
criterion not met

Is it the case that Cn1c(C(=O)N2CCC[C@@H]3CCCC[C@H]32)cc2ccccc21 (relative stereo) [Example 38] has inhibition at 10 µM reaching or exceeding 30%?
criterion not met

* * *

Record form. Attribute: melting point. Fill in for each entry.

// Input: Cc1ccc(NC(=O)c2ccc(C(=O)N3CCC[C@H]4CCCC[C@@H]43)cc2)cc1 (racemic) [Example 22] . Output its melting point only.
199 to 203 °C

// Input: CC1(C)CC[C@H]2[C@@H](CCCN2C(=O)c2ccc(NC(=O)c3ccc(Cl)cc3Cl)cc2)C1 (racemic) [Example 44] . Output its melting point only.
220 to 221 °C

// Input: O=C(Nc1ccc(C(=O)N2CCC[C@H]3CCCC[C@@H]32)cn1)c1ccc(F)cc1 (racemic) [Example 26] . Output its melting point only.
144 to 145 °C

// Input: CN(C(=O)c1ccc(NC(=O)c2ccc(Cl)cc2Cl)cc1)C1CC2CCC1C2 (stereo not shown) [Example 8-9] . Output its melting point only.
85 to 100 °C

// Input: O=C(Nc1ccc(C(=O)N2CCC[C@H]3CCCC[C@@H]32)cn1)c1ccc(Cl)cc1Cl (racemic) [Example 25] . Output its melting point only.
202 to 203 °C

// Input: O=C(Nc1ccc(C(=O)N2CCC[C@H]3CC(O)CC[C@@H]32)cc1)c1ccc(Cl)cc1Cl (relative stereo) [Example 41] . Output its melting point only.
183 to 184 °C

// Input: C[C@H]1CCCC[C@@H]1N(C)C(=O)c1ccc(NC(=O)c2ccc(Cl)cc2Cl)cc1 [Example 8-8] . Output its melting point only.
80 to 90 °C
